test system: E. coli AG100A; assay: microbe, parasite or virus in culture; format: cell-based; conditions: Escherichia coli, read-out: MIC E. coli AG100A
Exercise: state measured MIC for each of the compounds provided.

List reported MIC for each of these compounds:
1. CCN1CCN(C(=O)N[C@H](C(=O)N[C@H]2Cc3cccc(C(=O)O)c3OB2O)c2ccc(S(N)(=O)=O)c(O)c2)C(=O)C1=O
2. CCN1CCN(C(=O)N[C@H](C(=O)N[C@H]2Cc3cccc(C(=O)O)c3OB2O)c2ccc(S(N)(=O)=O)c(OC)c2)C(=O)C1=O
3. CCN1C[C@H](CCN)N(C(=O)NC(C(=O)N[C@H]2Cc3ccc(F)c(C(=O)O)c3OB2O)c2ccc(O)c(O)c2Cl)C(=O)C1=O (stereo partly shown)
4. NS(=O)(=O)NCCN1CCN(C(=O)NC(C(=O)N[C@H]2Cc3ccc(F)c(C(=O)O)c3OB2O)c2ccc(O)c(O)c2Cl)C(=O)C1=O (stereo partly shown)
5. CCN1CCN(C(=O)NC(C(=O)N[C@H]2Cc3cccc(C(=O)O)c3OB2O)c2cccnc2)C(=O)C1=O (stereo partly shown)
6. CCN1CCN(C(=O)NC(C(=O)N[C@H]2Cc3cccc(C(=O)O)c3OB2O)c2cccc(N)n2)C(=O)C1=O (stereo partly shown)
7. CCN1C[C@H](C)N(C(=O)NC(C(=O)N[C@H]2Cc3cccc(C(=O)O)c3OB2O)c2ncc(O)cc2F)C(=O)C1=O (stereo partly shown)

A.
["2 to 4 µg/mL", "8 to 16 µg/mL", "2 to 4 µg/mL", "0.5 to 1 µg/mL", "2 to 4 µg/mL", "0.5 to 1 µg/mL", "0.5 to 1 µg/mL"]

List reported MIC for each of these compounds:
1. O=C(O)c1cccc2c1OB(O)[C@@H](NC(=O)C(NC(=O)N1CCN(CCF)C(=O)C1=O)c1ccc(B(O)O)cc1)C2 (stereo partly shown)
2. C[C@H]1CN(CCN)C(=O)C(=O)N1C(=O)N[C@@H](C(=O)N[C@H]1Cc2ccc(F)c(C(=O)O)c2OB1O)c1ccc(O)c(O)c1Cl
3. CCN1C[C@H](CCN)N(C(=O)NC(C(=O)N[C@H]2Cc3cccc(C(=O)O)c3OB2O)c2ncc(O)cc2F)C(=O)C1=O (stereo partly shown)
4. CCN1CCN(C(=O)NC(C(=O)N[C@H]2Cc3cccc(C(=O)O)c3OB2O)c2ccc(O)c(O)c2Cl)C(=O)C1=O (stereo partly shown)
5. CCN1CCN(C(=O)N[C@@H](C(=O)N[C@H]2Cc3ccc(F)c(C(=O)O)c3OB2O)c2ccc(O)c(F)c2)C(=O)C1=O
6. CCN1CCN(C(=O)NC(C(=O)N[C@H]2Cc3cccc(C(=O)O)c3OB2O)c2ncc(OC(C)=O)cc2F)C(=O)C1=O (stereo partly shown)

A.
1. 2 to 4 µg/mL
2. 0.5 to 1 µg/mL
3. 8 to 16 µg/mL
4. 2 to 4 µg/mL
5. 32 to 64 µg/mL
6. 0.5 to 1 µg/mL

###

biological target: E. coli PBP3 (Escherichia coli (strain K12), UniProt P0AD68); experiment: E. coli PBP3 Bocillin-FL fluorescence polarization competition binding assay
pEC50: −log10 of the molar value.
RECORDED_METRIC: pEC50

CCN1CCN(C(=O)NC(C(=O)N[C@H]2Cc3cccc(C(=O)O)c3OB2O)c2ccc(O)cc2)C(=O)C1=O (some centres unmarked)    3.30 to 4.52
O=C(O)c1cccc2c1OB(O)[C@@H](NC(=O)C(NC(=O)N1C[C@H]3CCCN3C(=O)C1=O)c1ccc(O)c(O)c1Cl)C2 (some centres unmarked)    3.30 to 4.52
CCN1CCN(C(=O)N[C@H](C(=O)N[C@H]2Cc3cccc(C(=O)O)c3OB2O)c2ccc(S(N)(=O)=O)c(OC)c2)C(=O)C1=O    3.30 to 4.52
CCN1CCN(C(=O)NC(C(=O)N[C@H]2Cc3cccc(C(=O)O)c3OB2O)c2ccc(F)cn2)C(=O)C1=O (some centres unmarked)    3.30 to 4.52
CCN1CCN(C(=O)N[C@@H](C(=O)N[C@H]2Cc3cccc(C(=O)O)c3OB2O)C2CCN(C(=N)N)CC2)C(=O)C1=O    < 3.30

List reported pEC50 for each of these compounds:
1. CCN1CCN(C(=O)NC(C(=O)N[C@H]2Cc3cccc(C(=O)O)c3OB2O)[C@H](O)C(F)(F)F)C(=O)C1=O (mixture of isomers)
2. O=C(O)c1cccc2c1OB(O)[C@@H](NC(=O)C(NC(=O)N1CCN(CCF)C(=O)C1=O)c1ccc(B(O)O)cc1)C2 (some centres unmarked)
3. CCN1CCN(C(=O)N[C@H](C(=O)N[C@H]2Cc3cccc(C(=O)O)c3OB2O)C2CCN(C(=N)N)CC2)C(=O)C1=O
4. CCN1CCN(C(=O)NC(C(=O)N[C@H]2Cc3c(F)cc(F)c(C(=O)O)c3OB2O)c2csc(N)n2)C(=O)C1=O (some centres unmarked)
5. CCN1C[C@@H](C)N(C(=O)NC(C(=O)N[C@H]2Cc3cccc(C(=O)O)c3OB2O)c2ncc(O)cc2F)C(=O)C1=O (some centres unmarked)
6. CCN1CCN(C(=O)NC(C(=O)N[C@H]2Cc3cccc(C(=O)O)c3OB2O)c2ncc(N)cc2F)C(=O)C1=O (some centres unmarked)
7. CCN1CCN(C(=O)N[C@@H](CNS(C)(=O)=O)C(=O)N[C@H]2Cc3cccc(C(=O)O)c3OB2O)C(=O)C1=O

A.
["< 3.30", "3.30 to 4.52", "< 3.30", "3.30 to 4.52", "3.30 to 4.52", "3.30 to 4.52", "3.30 to 4.52"]

###

Exercise: state measured MIC for each of the molecules provided.
system: E. coli AG100; assay: Broth microdilution MIC, E. coli AG100 (wild-type parent); format: cell-based; conditions: Escherichia coli; wild-type parent E. coli AG100, broth microdilution; read-out: MIC E. coli AG100

Previously resolved entries follow.
CC(=O)NCCN1CCN(C(=O)NC(C(=O)N[C@H]2Cc3ccc(F)c(C(=O)O)c3OB2O)c2ccc(O)c(O)c2Cl)C(=O)C1=O (stereo partly drawn)    2 to 4 µg/mL
CCN1C[C@H](CO)N(C(=O)NC(C(=O)N[C@H]2Cc3ccc(F)c(C(=O)O)c3OB2O)c2ccc(O)c(O)c2Cl)C(=O)C1=O (stereo partly drawn)    0.5 to 1 µg/mL
CS(=O)(=O)NCCN1CCN(C(=O)NC(C(=O)N[C@H]2Cc3cccc(C(=O)O)c3OB2O)c2ccc(O)c(O)c2Cl)C(=O)C1=O (stereo partly drawn)    2 to 4 µg/mL
CCN1CCN(C(=O)NC(C(=O)N[C@H]2Cc3ccc(F)c(C(=O)O)c3OB2O)c2ncc(O)cc2Cl)C(=O)C1=O (stereo partly drawn)    32 to 64 µg/mL
CCN1CCN(C(=O)NC(C(=O)N[C@H]2Cc3cc(F)cc(C(=O)O)c3OB2O)c2csc(N)n2)C(=O)C1=O (stereo partly drawn)    32 to 64 µg/mL

Q. Request - read-out MIC | tested on E. coli AG100 | molecule `C[C@@H](O)[C@@H](NC(=O)N1CCN(CCF)C(=O)C1=O)C(=O)N[C@H]1Cc2ccc(F)c(C(=O)O)c2OB1O`
A. 8 to 16 µg/mL

###

tested on: E. coli ATCC 25922; test: Broth microdilution MIC, E. coli ATCC 25922; type: cell-based; conditions: Escherichia coli, ATCC25922, read-out: MIC E. coli 25922
Exercise: state measured MIC for each of the compounds provided.

CCN1C[C@H](CO)N(C(=O)NC(C(=O)N[C@H]2Cc3cccc(C(=O)O)c3OB2O)c2ncc(O)cc2F)C(=O)C1=O (stereo partly drawn)    > 128 µg/mL
NS(=O)(=O)c1ccc([C@@H](NC(=O)N2CCN(CCBr)C(=O)C2=O)C(=O)N[C@H]2Cc3cccc(C(=O)O)c3OB2O)cc1O    32 to 64 µg/mL
NS(=O)(=O)c1ccc([C@@H](NC(=O)N2CCN(CCF)C(=O)C2=O)C(=O)N[C@H]2Cc3cccc(C(=O)O)c3OB2O)cc1O    8 to 16 µg/mL
CCN1CCN(C(=O)NC(C(=O)N[C@H]2Cc3cccc(C(=O)O)c3OB2O)c2ncc(OC(C)=O)cc2F)C(=O)C1=O (stereo partly drawn)    8 to 16 µg/mL
NS(=O)(=O)NCCN1CCN(C(=O)NC(C(=O)N[C@H]2Cc3ccc(F)c(C(=O)O)c3OB2O)c2ccc(O)c(O)c2Cl)C(=O)C1=O (stereo partly drawn)    8 to 16 µg/mL

List reported MIC for each of these compounds:
1. CCN1CC(C)(C)N(C(=O)NC(C(=O)N[C@H]2Cc3cccc(C(=O)O)c3OB2O)c2ncc(O)cc2F)C(=O)C1=O (stereo partly drawn)
2. CS(=O)(=O)N1CCN(C(=O)NC(C(=O)N[C@H]2Cc3cccc(C(=O)O)c3OB2O)c2ccc(O)c(O)c2Cl)C1=O (stereo partly drawn)
3. C[C@H]1CN(CCN)C(=O)C(=O)N1C(=O)NC(C(=O)N[C@H]1Cc2cccc(C(=O)O)c2OB1O)c1ccc(O)c(O)c1Cl (stereo partly drawn)
4. CCN1CCN(C(=O)NC(C(=O)N[C@H]2Cc3ccc(F)c(C(=O)O)c3OB2O)c2ccc(O)c(O)c2Cl)C(O)C1=O (stereo partly drawn)
5. C[C@H]1CN(CCN)C(=O)C(=O)N1C(=O)N[C@@H](C(=O)N[C@H]1Cc2ccc(F)c(C(=O)O)c2OB1O)c1ccc(O)c(O)c1Cl

A.
["> 128 µg/mL", "32 to 64 µg/mL", "8 to 16 µg/mL", "32 to 64 µg/mL", "2 to 4 µg/mL"]

List reported MIC for each of these compounds:
1. NS(=O)(=O)c1ccc([C@H](NC(=O)N2CCN(CCBr)C(=O)C2=O)C(=O)N[C@H]2Cc3cccc(C(=O)O)c3OB2O)cc1O
2. CCN1CCN(C(=O)NC(C(=O)N[C@H]2Cc3cccc(C(=O)O)c3OB2O)c2ccc(C(=O)O)cc2)C(=O)C1=O (stereo partly drawn)
3. Nc1nc(C(NS(=O)(=O)c2cccnc2)C(=O)N[C@H]2Cc3cccc(C(=O)O)c3OB2O)cs1 (stereo partly drawn)
4. CCN1CCN(C(=O)NC(C(=O)N[C@H]2Cc3cccc(C(=O)O)c3OB2O)c2nsc(N)n2)C(=O)C1=O (stereo partly drawn)
5. NCCCN1CCN(C(=O)N[C@@H](C(=O)N[C@H]2Cc3cccc(C(=O)O)c3OB2O)c2ncc(O)cc2F)C(=O)C1=O
6. CCN1CCN(C(=O)NC(C(=O)N[C@H]2Cc3cccc(C(=O)O)c3OB2O)c2ncc(C(=O)NCCO)cc2F)C(=O)C1=O (stereo partly drawn)

A.
["32 to 64 µg/mL", "32 to 64 µg/mL", "> 128 µg/mL", "8 to 16 µg/mL", "8 to 16 µg/mL", "> 128 µg/mL"]

List reported MIC for each of these compounds:
1. O=C(O)c1cccc2c1OB(O)[C@@H](NC(=O)C(NC(=O)c1c[nH]ccc1=O)c1ncc(O)cc1F)C2 (stereo partly drawn)
2. O=C(O)CN1CCN(C(=O)NC(C(=O)N[C@H]2Cc3cccc(C(=O)O)c3OB2O)c2ccc(O)c(O)c2Cl)C(=O)C1=O (stereo partly drawn)

A.
1: > 128 µg/mL; 2: 32 to 64 µg/mL
